experiment: Selectivity index, ratio of IC50 for rat L6 cells to IC50 for Trypanosoma brucei rhodesiense STIB 900; format: toxicity, cell-based; settings: read-out: Ratio IC50
Consider the cut-off 5. If the recorded selectivity ratio is strictly smaller, the label is satisfied; if not, the label is not satisfied.

[[record]]
molecule = "CN1CCC2(N3CCCC3)CC(c3ccc(Cl)cc3)C1C(c1ccc(Cl)cc1)C2 (racemic)"
class_assignment = "not satisfied"


Attention now shifts to the item below.
Query: Threshold test, selectivity ratio < 5: CN(C)C12CCN(CCN3CCCC3)C(C(c3ccccc3)C1)C(c1ccccc1)C2 (racemic)
Reply: not satisfied

====

assay: Selectivity index, ratio of IC50 for rat L6 cells to IC50 for chloroquine and pyrimethamine-resistant Plasmodium falciparum K1; assay type: toxicity, cell-based; settings: read-out: Ratio IC50
Experimental readout: selectivity ratio
Output: the number by itself.

[[record]]
molecule = "CN(C)C12CCN(CCN3CCCC3)C(C(c3ccccc3)C1)C(c1ccccc1)C2 (racemic)"
experimental_readout = "selectivity ratio"
measured_number = 136

[[record]]
molecule = "c1ccc(CN2CCC3(N4CCCC4)CC(c4ccccc4)C2C(c2ccccc2)C3)cc1 (racemic)"
experimental_readout = "selectivity ratio"
measured_number = 5.67


Query: Given the entry Clc1ccc(C2CC3(N4CCCC4)CCN(CCc4ccccc4)C2C(c2ccc(Cl)cc2)C3)cc1 (racemic) , report its measured selectivity ratio.
Reply: 8.12

Query: What value of selectivity ratio has been recorded for this entry: c1ccc(CCN2CCC3(N4CCCCC4)CC(c4ccccc4)C2C(c2ccccc2)C3)cc1 (racemic)
Reply: 11.8
